B1: TPR 5TU (parent)
chain: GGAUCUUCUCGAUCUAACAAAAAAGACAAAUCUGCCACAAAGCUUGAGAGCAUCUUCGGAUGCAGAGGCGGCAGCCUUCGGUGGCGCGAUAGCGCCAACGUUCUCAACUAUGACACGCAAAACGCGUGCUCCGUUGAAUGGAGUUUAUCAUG

- Variants of: B1
- Test Protocol: polymerase ribozyme fitness, log enrichment relative to wild type (log ratio); higher = more active; in vitro selection for triplet polymerase activity
This sample holds only a part of the variants without activity.
This section presents variants with their documented polymerase ribozyme fitness (log ratio) values.
Parameter: polymerase ribozyme fitness (log ratio)

• C14A G94U A107G = ≤ -4.2
• A29C G48C C79A A122G G124U U144A U145G G152U = ≤ -4.2
• A24U G83U C85G G126U = ≤ -4.2
• A52C C95U C99U = -3.18
• A21G C38U A47C U90A C96A A137U = ≤ -4.2
• G42A G48A A97G A138U = ≤ -4.2
• C85A C103A C149U = -3.27
• U53G G58C C95G A122U = ≤ -4.2
• A52G G86A C93A G143A = ≤ -4.2
• A28U G83A C116U U145A = ≤ -4.2
• C87U C99G = -1.97
